System Under Test: HuNV RdRp (His-RdRp; GII.P3 RdRp) (Norwalk-like virus, UniProt Q8JXI4)
Construct: mature NS7 RdRp from ORF1 genome polyprotein, cDNA nt 3581-5113; N-terminal His6 tag (pET28b), E. coli ArcticExpress (DE3); 57 kDa by SDS-PAGE
Test Summary: RNA synthesis, dsRNA product after S1 nuclease, native PAGE with SYBR Green II
Format: biochemical
Parameter Measured: IC50 (µM)
Numeric answer only, unit µM assumed.

Asked: Reported IC50 for C[C@@]1(O)[C@H](O)[C@@H](COP(=O)(O)OP(=O)(O)OP(=O)(O)O)O[C@H]1n1ccc(N)nc1=O [2′CM-CTP, 2′-C-methylcytidine triphosphate] : what is it?
Given back: 57
